Below are Minimum inhibitory concentration, Ec FADDI-EC003 values measured for Enterobacter cloacae.
Positions of bridges follow the written chain, without caps; N, C: chain ends. Non-standard residues stand in square brackets, D forms with d. Residues, ends and D or L forms follow the SMILES beside them. *: point of attachment. Benzoyl(3-CF3) = O=C(c1cccc(C(F)(F)F)c1)*; X29 = Cc1cc(C)cc(C(=O)*)c1; dNle = CCCC[C@@H](N)C(=O)O; Nonanoyl = CCCCCCCCC(=O)*; X11 = Cc1ccc(C(=O)*)cc1Cl; X28 = O=C(c1ccc(F)cc1Cl)*; Octanoyl = CCCCCCCC(=O)*; Orn = NCCC[C@H](N)C(=O)O; Dab = NCC[C@H](N)C(=O)O; Abu = CC[C@H](N)C(=O)O; Dap = NC[C@H](N)C(=O)O; X35 = O=C(Cc1ccccc1F)*
PROPERTY_LABEL: Minimum inhibitory concentration, Ec FADDI-EC003 (µg/mL)

COMPOUND	OUTPUT_UNIT	SIGN_QUALIFIER	OBSERVED
CCCCCCCC(=O)N[C@@H](CCN)C(=O)N[C@H](C(=O)N[C@H](CO)C(=O)N[C@H]1CCNC(=O)[C@H]([C@@H](C)O)NC(=O)[C@H](CCN)NC(=O)[C@H](CCN)NC(=O)[C@H]([C@@H](C)O)NC(=O)[C@@H](CCCC)NC(=O)[C@H](CCN)NC1=O)[C@@H](C)O [Compound 7] (Octanoyl-[Dab]T[dS][Dab][Dab][dNle]T[Dab][Dab]T; lactam 4-C)	µg/mL	=	0.25
CCCCCCCC(=O)N[C@@H](CCN)C(=O)N[C@H](C(=O)N[C@@H](CN)C(=O)N[C@H]1CCNC(=O)[C@H]([C@@H](C)O)NC(=O)[C@H](CCCN)NC(=O)[C@H](CCN)NC(=O)[C@H]([C@@H](C)O)NC(=O)[C@@H](CC(C)C)NC(=O)[C@H](CCN)NC1=O)[C@@H](C)O [Compound 53] (Octanoyl-[Dab]T[Dap][Dab][Dab][dL]T[Dab][Orn]T; lactam 4-C)	µg/mL	=	2
CC[C@@H]1NC(=O)[C@@H](CC(C)C)NC(=O)[C@H](CCN)NC(=O)[C@@H](NC(=O)[C@H](CN)NC(=O)[C@@H](NC(=O)[C@H](CCN)NC(=O)c2ccc(F)cc2Cl)[C@@H](C)O)CCNC(=O)[C@H]([C@@H](C)O)NC(=O)[C@H](CCN)NC(=O)[C@H](CCN)NC1=O [Compound 135] (X28-[Dab]T[Dap][Dab][Dab][dL][Abu][Dab][Dab]T; lactam 4-C)	µg/mL	<	0.125
CCCCCCCC(=O)N[C@@H](CCN)C(=O)N[C@H](C(=O)N[C@@H](CCN)C(=O)N[C@H]1CCNC(=O)[C@H]([C@@H](C)O)NC(=O)[C@H](CCN)NC(=O)[C@H](CCN)NC(=O)[C@H](CC)NC(=O)[C@@H](CC(C)C)NC(=O)[C@H](CCN)NC1=O)[C@@H](C)O [Compound 60] (Octanoyl-[Dab]T[Dab][Dab][Dab][dL][Abu][Dab][Dab]T; lactam 4-C)	µg/mL	<	0.125
CCCCCCCC(=O)N[C@@H](CCN)C(=O)N[C@H](C(=O)N[C@@H](CN)C(=O)N[C@H]1CCNC(=O)[C@H]([C@@H](C)O)NC(=O)[C@H](CCN)NC(=O)[C@H](CCN)NC(=O)[C@H]([C@@H](C)O)NC(=O)[C@@H](CC(C)C)NC(=O)[C@H](CCN)NC1=O)[C@@H](C)O [Compound 33] (Octanoyl-[Dab]T[Dap][Dab][Dab][dL]T[Dab][Dab]T; lactam 4-C)	µg/mL	<	0.125
CC[C@@H]1NC(=O)[C@@H](CC(C)C)NC(=O)[C@H](CCN)NC(=O)[C@@H](NC(=O)[C@H](CN)NC(=O)[C@@H](NC(=O)[C@H](CCN)NC(=O)Cc2ccccc2F)[C@@H](C)O)CCNC(=O)[C@H]([C@@H](C)O)NC(=O)[C@H](CCN)NC(=O)[C@H](CCN)NC1=O [Compound 85] (X35-[Dab]T[Dap][Dab][Dab][dL][Abu][Dab][Dab]T; lactam 4-C)	µg/mL	=	1
CCCCCCCC(=O)N[C@@H](CCN)C(=O)N[C@H](C(=O)N[C@@H](CN)C(=O)N[C@H]1CCNC(=O)[C@H]([C@@H](C)O)NC(=O)[C@H](CCN)NC(=O)[C@H](CCN)NC(=O)[C@H]([C@@H](C)O)NC(=O)[C@@H](CC(C)C)NC(=O)[C@H](CN)NC1=O)[C@@H](C)O [Compound 52] (Octanoyl-[Dab]T[Dap][Dab][Dap][dL]T[Dab][Dab]T; lactam 4-C)	µg/mL	=	0.25
CCCCCCCCC(=O)N[C@@H](CCN)C(=O)N[C@H](C(=O)N[C@@H](CN)C(=O)N[C@H]1CCNC(=O)[C@H]([C@@H](C)O)NC(=O)[C@H](CCN)NC(=O)[C@H](CCN)NC(=O)[C@H](CC)NC(=O)[C@@H](CC(C)C)NC(=O)[C@H](CCN)NC1=O)[C@@H](C)O [Compound 59] (Nonanoyl-[Dab]T[Dap][Dab][Dab][dL][Abu][Dab][Dab]T; lactam 4-C)	µg/mL	=	1
CC[C@@H]1NC(=O)[C@@H](CC(C)C)NC(=O)[C@H](CCN)NC(=O)[C@@H](NC(=O)[C@H](CN)NC(=O)[C@@H](NC(=O)[C@H](CCN)NC(=O)c2cc(C)cc(C)c2)[C@@H](C)O)CCNC(=O)[C@H]([C@@H](C)O)NC(=O)[C@H](CCN)NC(=O)[C@H](CCN)NC1=O [Compound 93] (X29-[Dab]T[Dap][Dab][Dab][dL][Abu][Dab][Dab]T; lactam 4-C)	µg/mL	=	1
CC[C@@H]1NC(=O)[C@@H](Cc2ccccc2)NC(=O)[C@H](CCN)NC(=O)[C@@H](NC(=O)[C@H](CN)NC(=O)[C@@H](NC(=O)[C@H](CCN)NC(=O)c2cccc(C(F)(F)F)c2)[C@@H](C)O)CCNC(=O)[C@H]([C@@H](C)O)NC(=O)[C@H](CCN)NC(=O)[C@H](CCN)NC1=O [Compound 122] ({Benzoyl(3-CF3)}-[Dab]T[Dap][Dab][Dab][dF][Abu][Dab][Dab]T; lactam 4-C)	µg/mL	=	0.5
CC[C@@H]1NC(=O)[C@@H](CC(C)C)NC(=O)[C@H](CCN)NC(=O)[C@@H](NC(=O)[C@H](CN)NC(=O)[C@@H](NC(=O)[C@H](CCN)NC(=O)c2ccc(C)c(Cl)c2)[C@@H](C)O)CCNC(=O)[C@H]([C@@H](C)O)NC(=O)[C@H](CCN)NC(=O)[C@H](CCN)NC1=O [Compound 105] (X11-[Dab]T[Dap][Dab][Dab][dL][Abu][Dab][Dab]T; lactam 4-C)	µg/mL	=	0.5

====

Listing: Minimum inhibitory concentration, Ab A ATCC 17978 of selected compounds
- Tested on: Acinetobacter baumannii
- Protocol: MICs of the lipopeptides (trifluoroacetic acid salt, TFA) were determined by broth microdilution in cation-adjusted Mueller-Hinton broth (CAMHB) (Oxoid Australia, Thebarton, SA, Australia) according to Clinical and Laboratory Standards Institute standards (Clinical and Laboratory Standards Institute. Performance standards for antimicrobial susceptibility testing; eighteenth informational supplement M100-S18. Wayne, Pa., 2008). Polymyxin B (sulphate) was employed as control. […]
Starred links: 1 amine or outer side, 2 acyl side, 3 side chain; linkers in the order of their positions; H or OH if unused. Positions of bridges follow the written chain, without caps; N, C: chain ends. Non-standard residues stand in square brackets, D forms with d. Residues, ends and D or L forms follow the SMILES beside them. ξ: configuration not given here. *: point of attachment. X2 = CC(C)C[C@@H](CC(=O)[C@H](CCN)N[*:1])C(=O)[*:2]; Benzoyl(4-Et) = CCc1ccc(C(=O)*)cc1; Thr(3ξ) = CC(O)[C@H](N)C(=O)O; Heptanoyl = CCCCCCC(=O)*; Octanoyl = CCCCCCCC(=O)*; Dab = NCC[C@H](N)C(=O)O; Abu = CC[C@H](N)C(=O)O; Dap = NC[C@H](N)C(=O)O
PROPERTY_LABEL: Minimum inhibitory concentration, Ab A ATCC 17978 (µg/mL)

COMPOUND	ASSAYED_SYSTEM	OUTPUT_UNIT	OBSERVED
CCCCCCC(=O)N[C@@H](CCN)C(=O)N[C@H](C(=O)N[C@@H](CN)C(=O)N[C@H]1CCNC(=O)[C@H]([C@@H](C)O)NC(=O)[C@H](CCN)NC(=O)[C@H](CCN)NC(=O)[C@H](C)NC(=O)[C@@H](CC(C)C)NC(=O)[C@H](CCN)NC1=O)[C@@H](C)O [Compound 63] (Heptanoyl-[Dab]T[Dap][Dab][Dab][dL]A[Dab][Dab]T; lactam 4-C)	Acinetobacter baumannii	µg/mL	1
CCCCCCCC(=O)N[C@@H](CN)C(=O)N[C@H](C(=O)N[C@@H](CCN)C(=O)N[C@H]1CCNC(=O)[C@H]([C@@H](C)O)NC(=O)[C@H](CCN)NC(=O)[C@H](CCN)NC(=O)[C@H]([C@@H](C)O)NC(=O)[C@@H](CC(C)C)NC(=O)[C@H](CCN)NC1=O)[C@@H](C)O [Compound 31] (Octanoyl-[Dap]T[Dab][Dab][Dab][dL]T[Dab][Dab]T; lactam 4-C)	Acinetobacter baumannii	µg/mL	4
CCc1ccc(C(=O)N[C@@H](CCN)C(=O)N[C@H](C(=O)N[C@@H](CN)C(=O)N[C@H]2CCNC(=O)[C@H]([C@@H](C)O)NC(=O)[C@H](CCN)NC(=O)[C@H](CCN)NC(=O)[C@H](CC)NC(=O)[C@@H](CC(C)C)NC(=O)[C@H](CCN)NC2=O)[C@@H](C)O)cc1 [Compound 100] ({Benzoyl(4-Et)}-[Dab]T[Dap][Dab][Dab][dL][Abu][Dab][Dab]T; lactam 4-C)	Acinetobacter baumannii	µg/mL	1
CCCCCCCC(=O)N[C@@H](CCN)C(=O)N[C@H](C(=O)N[C@@H](CO)C(=O)N[C@H]1CCNC(=O)[C@H]([C@@H](C)O)NC(=O)[C@H](CCN)NC(=O)[C@H](CCN)NC(=O)[C@H]([C@@H](C)O)NC(=O)[C@@H](CC(C)C)NC(=O)[C@H](CCN)NC1=O)[C@@H](C)O [Compound 4] (Octanoyl-[Dab]TS[Dab][Dab][dL]T[Dab][Dab]T; lactam 4-C)	Acinetobacter baumannii	µg/mL	8
CCCCCCCC(=O)N[C@@H](CCN)C(=O)N[C@H](C(=O)N[C@H](CO)C(=O)N[C@H]1CCNC(=O)[C@H](C(C)O)NC(=O)[C@H](CCN)NC(=O)[C@H](CCN)NC(=O)[C@H](C(C)O)NC(=O)[C@@H](CC(C)C)CC(=O)[C@H](CCN)NC1=O)C(C)O (stereo partly drawn) [Compound 1] (Octanoyl-[Dab][Thr(3ξ)][dS][Dab][X2][Thr(3ξ)][Dab][Dab][Thr(3ξ)]; lactam 4-C)	Acinetobacter baumannii	µg/mL	0.25
CCCCCCCC(=O)N[C@@H](CCN)C(=O)N[C@H](C(=O)N[C@@H](CCN)C(=O)N[C@H]1CCNC(=O)[C@H]([C@@H](C)O)NC(=O)[C@H](CCN)NC(=O)[C@H](CCN)NC(=O)[C@H](C)NC(=O)[C@@H](CC(C)C)NC(=O)[C@H](CCN)NC1=O)[C@@H](C)O [Compound 21] (Octanoyl-[Dab]T[Dab][Dab][Dab][dL]A[Dab][Dab]T; lactam 4-C)	Acinetobacter baumannii	µg/mL	2
